All figures here come from patent US20240182536A1.

- Test Target: T1, IL-18 binding protein (IL-18BP) (UniProt O95998 31-194)
- T1 sequence (looked up): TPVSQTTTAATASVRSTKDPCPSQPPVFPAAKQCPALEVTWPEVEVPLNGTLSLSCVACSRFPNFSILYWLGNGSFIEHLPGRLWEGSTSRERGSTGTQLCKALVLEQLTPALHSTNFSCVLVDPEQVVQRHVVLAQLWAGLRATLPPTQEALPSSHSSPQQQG
- Test Name: cell-based or functional assay
Parameter: Activity, +100 nM BP, DF-1000002
Write the value as a bare number.

* IL-18 variant G3E, E6H, R27S, D54A, S55T, T63S, N91F, R104S (ligand) YFEKLHSKLSVIRNLNDQVLFIDQGNSPLFEDMTDSDMRDNAPRTIFIISMYKATQPRGMAVSISVKSEKISTLSSENKIISFKEMNPPDFIKDTKSDIIFFQSSVPGHDNKMQFESSSYEGYFLASEKERDLFKLILKKEDELGDRSIMFTVQNED | 1.8
* IL-18 variant G3P, E6S, K53N, D54Y, S55P, T63I, N91K, R104H (ligand) YFPKLSSKLSVIRNLNDQVLFIDQGNRPLFEDMTDSDMRDNAPRTIFIISMYNYPQPRGMAVIISVKSEKISTLSSENKIISFKEMNPPDKIKDTKSDIIFFQHSVPGHDNKMQFESSSYEGYFLASEKERDLFKLILKKEDELGDRSIMFTVQNED | 0.07

Would you kindly look at the next entry?
Ask: // returns reported Activity, +100 nM BP, DF-1000002 for input IL-18 variant G3D, E6Q, R27S, K53R, D54A, S55R, T63S, N91Q (ligand) YFDKLQSKLSVIRNLNDQVLFIDQGNSPLFEDMTDSDMRDNAPRTIFIISMYRARQPRGMAVSISVKSEKISTLSSENKIISFKEMNPPDQIKDTKSDIIFFQRSVPGHDNKMQFESSSYEGYFLASEKERDLFKLILKKEDELGDRSIMFTVQNED
Result: 0.52
